Listed here: items and their measured inhibition.
- Tgt: Pantothenate synthetase (Mycobacterium tuberculosis (strain ATCC 25618 / H37Rv)) (UniProt P9WIL5)
- Sequence (P9WIL5 whole entry, looked up): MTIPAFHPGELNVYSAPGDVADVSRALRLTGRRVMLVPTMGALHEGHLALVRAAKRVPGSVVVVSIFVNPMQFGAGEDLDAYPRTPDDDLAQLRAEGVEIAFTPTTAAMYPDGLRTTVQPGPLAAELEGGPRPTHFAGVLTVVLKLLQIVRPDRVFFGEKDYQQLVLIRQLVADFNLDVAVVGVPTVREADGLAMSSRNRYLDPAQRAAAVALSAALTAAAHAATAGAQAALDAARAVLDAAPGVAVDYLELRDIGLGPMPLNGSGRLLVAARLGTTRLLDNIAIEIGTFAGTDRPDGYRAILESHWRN
- Procedure text: Coupled enzyme confirmation of inhibitors against recombinant Mtb PanC (AID 375);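 note: 0% = full reaction with vehicle and 100% = no enzyme background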
- Assay context: coupled enzyme assay; at 10 µM, stronger effect = higher value

| Compound | Measure unit | inhibition |
| --- | --- | --- |
| CCN1CCN(c2ncnc3c2oc2nc(C)c4c(c23)CC(C)(C)OC4)CC1 | % | 0 |
| Cc1cc(C2C(C#N)=C(N)SC(N)=C2C#N)c(C)s1 | % | 0 |
| COc1ccc(N2CCN(C(=O)CSc3nnc(Cn4nnc5ccccc54)n3C)CC2)cc1 | % | 0 |
| CCOC(=O)Cc1csc(NC(=O)CSc2nnc(C3CC3)n2C)n1 | % | 3 |
| CC(=O)N1CCN=C1SCc1ccc(Br)cc1 | % | 4 |
| O=C(O)c1cccc(CN2C(=O)SC(Nc3ccccc3)C2=O)c1 (stereo not drawn) | % | 4 |
| CCOC(=O)CN1CC23C=CC(O2)C(C(=O)NCc2ccc(F)cc2)C3C1=O (stereo not drawn) | % | 0 |
| Cn1c(C(=O)NCCCN2CCCCCC2)cc2c(=O)n(C)c3ccccc3c21 | % | 0 |
| COc1cccc(CN2C(=O)C3(C(C#N)=C(N)OC4=C3C(=O)CCC4)c3ccccc32)c1 (stereo not drawn) | % | 0 |
| CCOC(=O)c1ccccc1NC(=O)CSc1nnc(COc2ccccc2C)n1C | % | 2 |
| CCOc1ccccc1NC(=O)CSc1nnc2c(CC)c(C)nc(N)n12 | % | 0 |
| C=COC(=O)CSc1snc(SCC(=O)OC)c1C#N | % | 0 |
| O=C(Nc1ccc(CN2CCCCC2)cc1)c1ccc2c(c1)OCO2 | % | 3 |
| Cc1cc(=O)[nH]c(SCC(=O)NCc2ccco2)n1 | % | 0 |
| Cc1cccc(Cc2nnc(NC(=O)c3cccc(S(=O)(=O)N4CCOCC4)c3)s2)c1 | % | 0 |
| Cc1ccc(-n2ncc3c(=O)n(CC(=O)NCc4ccco4)cnc32)cc1 | % | 0 |
| c1coc(Cn2nnnc2CN2CCN(C3CCCC3)CC2)c1 | % | 0 |
| CCOCCCNC(=O)c1ccc2c(c1)ncn2C1CCCC1 | % | 5 |
| COC(=O)CN(c1ccc(F)cc1)S(=O)(=O)c1ccccc1 | % | 0 |
| CCOc1ccc(-c2nc(C#N)c(N3CCCCCC3)o2)cc1 | % | 4 |
| CN(Cc1ccccc1)C(=O)c1ccccc1NC(=O)c1ccco1 | % | 0 |
| CCOC(=O)N1CCC(Nc2nc3ccccc3n3cnnc23)CC1 | % | 10 |
| O=C(OCC#CCSc1nnc(-c2ccccc2)o1)c1cccs1 | % | 0 |
